- test_description: modulators of CIT2-GFP expression in yeast, primary screen, S. cerevisiae, GFP fusion, multiplex flow cytometry (AID 1870);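 further: barcoded CIT2-GFP strain pooled with four other GFP strains with rapamycin as positive control; median GFP fluorescence per well over plate mean of DMSO wells so 100% = DMSO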
- reported_conditions: 3 h, at 10 µM, active compounds read high
readout: percent response of DMSO control (%)
The reply should be a number in %, with the unit left off.

Answered examples (5):
compound | u | percent response of DMSO control
Cn1nc(-c2ccccn2)nc2c(=O)n(C)c(=O)nc1-2 | % | 110
Cn1cnc2c1c(=O)n(CC(O)CO)c(=O)n2C (stereo unspecified) | % | 98.9
COc1ccc(-c2nc(C)c(C(C)=O)n2O)cc1OC | % | 114
COc1ccc(C2C(=O)c3ccccc3C2=O)cc1 | % | 102
CC(CCc1ccccc1)NCC(O)c1ccc(O)c(C(N)=O)c1 (stereo unspecified) | % | 107

Inquiry: Look up percent response of DMSO control: O=C1NCC2=C1C(c1ccccc1)Nc1ccccc1N2 (stereo unspecified)
Reply text: 102
